- Test system: AGS
- experiment-description: Antiproliferative activity against human AGS cells after 72 hrs by SRB or MTT assay
- Type: functional, cell-based
pIC50: −log10 of the molar value.
quantity: pIC50

input: Any idea what pIC50 was measured for `Fc1ccc(-c2cnc3nnc(C(F)(F)c4ccc5ncccc5c4)n3n2)cc1` ?
output: < 5.00

----------
- system-name: TPR/MET fusion protein (Mus musculus) (UniProt P16056+F6ZDS4)
- Sequence (F6ZDS4 whole entry partner, the tested form may be a part): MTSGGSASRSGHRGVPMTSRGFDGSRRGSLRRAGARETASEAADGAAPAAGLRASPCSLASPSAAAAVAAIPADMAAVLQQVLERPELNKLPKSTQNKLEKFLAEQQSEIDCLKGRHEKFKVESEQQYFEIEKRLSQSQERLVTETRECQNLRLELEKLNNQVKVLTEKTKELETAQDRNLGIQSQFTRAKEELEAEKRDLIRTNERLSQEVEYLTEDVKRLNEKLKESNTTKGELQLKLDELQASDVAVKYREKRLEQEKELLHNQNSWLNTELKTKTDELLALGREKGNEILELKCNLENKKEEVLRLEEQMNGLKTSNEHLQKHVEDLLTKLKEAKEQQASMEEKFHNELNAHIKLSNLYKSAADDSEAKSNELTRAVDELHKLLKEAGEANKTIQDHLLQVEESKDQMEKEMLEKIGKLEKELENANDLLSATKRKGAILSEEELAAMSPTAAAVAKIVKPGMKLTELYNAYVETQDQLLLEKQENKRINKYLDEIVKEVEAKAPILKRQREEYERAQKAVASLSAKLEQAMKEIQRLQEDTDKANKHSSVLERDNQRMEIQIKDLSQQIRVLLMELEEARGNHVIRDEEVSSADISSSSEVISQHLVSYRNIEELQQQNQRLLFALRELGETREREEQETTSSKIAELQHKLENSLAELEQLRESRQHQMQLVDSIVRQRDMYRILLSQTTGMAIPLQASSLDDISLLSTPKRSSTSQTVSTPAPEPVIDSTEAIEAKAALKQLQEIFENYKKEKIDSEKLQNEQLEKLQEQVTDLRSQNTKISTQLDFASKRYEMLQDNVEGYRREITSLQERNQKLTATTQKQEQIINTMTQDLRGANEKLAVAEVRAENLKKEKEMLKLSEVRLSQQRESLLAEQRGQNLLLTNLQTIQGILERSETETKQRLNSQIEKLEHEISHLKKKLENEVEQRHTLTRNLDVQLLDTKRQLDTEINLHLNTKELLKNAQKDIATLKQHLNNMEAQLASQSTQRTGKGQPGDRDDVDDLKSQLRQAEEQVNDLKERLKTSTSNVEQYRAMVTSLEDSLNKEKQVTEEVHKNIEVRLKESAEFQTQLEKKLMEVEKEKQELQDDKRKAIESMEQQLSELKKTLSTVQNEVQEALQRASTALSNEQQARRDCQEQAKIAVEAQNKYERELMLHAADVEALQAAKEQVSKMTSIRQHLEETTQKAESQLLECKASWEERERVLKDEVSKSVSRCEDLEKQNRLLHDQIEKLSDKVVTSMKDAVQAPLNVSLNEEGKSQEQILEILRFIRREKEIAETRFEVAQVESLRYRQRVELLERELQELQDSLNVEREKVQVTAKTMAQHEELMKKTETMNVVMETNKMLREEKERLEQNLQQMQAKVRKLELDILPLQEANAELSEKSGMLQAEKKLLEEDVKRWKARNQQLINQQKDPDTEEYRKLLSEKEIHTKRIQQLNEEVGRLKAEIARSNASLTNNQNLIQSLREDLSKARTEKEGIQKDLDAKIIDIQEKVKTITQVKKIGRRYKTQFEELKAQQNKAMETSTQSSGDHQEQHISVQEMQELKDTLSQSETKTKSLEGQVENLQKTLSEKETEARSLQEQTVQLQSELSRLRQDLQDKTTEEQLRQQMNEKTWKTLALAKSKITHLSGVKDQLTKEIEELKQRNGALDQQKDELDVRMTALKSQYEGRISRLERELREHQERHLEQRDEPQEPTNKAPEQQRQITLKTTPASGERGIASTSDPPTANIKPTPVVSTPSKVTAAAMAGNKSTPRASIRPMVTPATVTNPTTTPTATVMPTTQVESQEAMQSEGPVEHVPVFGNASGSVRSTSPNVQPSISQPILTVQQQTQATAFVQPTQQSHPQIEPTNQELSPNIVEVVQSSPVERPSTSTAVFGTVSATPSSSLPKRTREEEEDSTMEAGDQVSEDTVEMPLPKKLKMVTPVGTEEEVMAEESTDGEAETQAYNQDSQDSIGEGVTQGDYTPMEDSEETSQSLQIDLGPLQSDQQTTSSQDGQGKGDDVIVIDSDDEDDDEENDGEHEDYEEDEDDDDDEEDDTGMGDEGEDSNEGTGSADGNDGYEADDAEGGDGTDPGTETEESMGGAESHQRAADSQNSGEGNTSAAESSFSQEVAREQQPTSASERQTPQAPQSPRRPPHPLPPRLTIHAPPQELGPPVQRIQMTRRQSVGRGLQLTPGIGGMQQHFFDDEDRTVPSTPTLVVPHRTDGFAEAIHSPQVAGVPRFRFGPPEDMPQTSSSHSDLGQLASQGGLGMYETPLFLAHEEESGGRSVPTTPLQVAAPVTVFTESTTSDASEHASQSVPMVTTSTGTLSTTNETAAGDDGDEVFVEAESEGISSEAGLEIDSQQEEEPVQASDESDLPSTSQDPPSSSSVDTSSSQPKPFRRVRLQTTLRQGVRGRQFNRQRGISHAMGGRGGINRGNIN
- Sequence (P16056 25-1379 limits assumed): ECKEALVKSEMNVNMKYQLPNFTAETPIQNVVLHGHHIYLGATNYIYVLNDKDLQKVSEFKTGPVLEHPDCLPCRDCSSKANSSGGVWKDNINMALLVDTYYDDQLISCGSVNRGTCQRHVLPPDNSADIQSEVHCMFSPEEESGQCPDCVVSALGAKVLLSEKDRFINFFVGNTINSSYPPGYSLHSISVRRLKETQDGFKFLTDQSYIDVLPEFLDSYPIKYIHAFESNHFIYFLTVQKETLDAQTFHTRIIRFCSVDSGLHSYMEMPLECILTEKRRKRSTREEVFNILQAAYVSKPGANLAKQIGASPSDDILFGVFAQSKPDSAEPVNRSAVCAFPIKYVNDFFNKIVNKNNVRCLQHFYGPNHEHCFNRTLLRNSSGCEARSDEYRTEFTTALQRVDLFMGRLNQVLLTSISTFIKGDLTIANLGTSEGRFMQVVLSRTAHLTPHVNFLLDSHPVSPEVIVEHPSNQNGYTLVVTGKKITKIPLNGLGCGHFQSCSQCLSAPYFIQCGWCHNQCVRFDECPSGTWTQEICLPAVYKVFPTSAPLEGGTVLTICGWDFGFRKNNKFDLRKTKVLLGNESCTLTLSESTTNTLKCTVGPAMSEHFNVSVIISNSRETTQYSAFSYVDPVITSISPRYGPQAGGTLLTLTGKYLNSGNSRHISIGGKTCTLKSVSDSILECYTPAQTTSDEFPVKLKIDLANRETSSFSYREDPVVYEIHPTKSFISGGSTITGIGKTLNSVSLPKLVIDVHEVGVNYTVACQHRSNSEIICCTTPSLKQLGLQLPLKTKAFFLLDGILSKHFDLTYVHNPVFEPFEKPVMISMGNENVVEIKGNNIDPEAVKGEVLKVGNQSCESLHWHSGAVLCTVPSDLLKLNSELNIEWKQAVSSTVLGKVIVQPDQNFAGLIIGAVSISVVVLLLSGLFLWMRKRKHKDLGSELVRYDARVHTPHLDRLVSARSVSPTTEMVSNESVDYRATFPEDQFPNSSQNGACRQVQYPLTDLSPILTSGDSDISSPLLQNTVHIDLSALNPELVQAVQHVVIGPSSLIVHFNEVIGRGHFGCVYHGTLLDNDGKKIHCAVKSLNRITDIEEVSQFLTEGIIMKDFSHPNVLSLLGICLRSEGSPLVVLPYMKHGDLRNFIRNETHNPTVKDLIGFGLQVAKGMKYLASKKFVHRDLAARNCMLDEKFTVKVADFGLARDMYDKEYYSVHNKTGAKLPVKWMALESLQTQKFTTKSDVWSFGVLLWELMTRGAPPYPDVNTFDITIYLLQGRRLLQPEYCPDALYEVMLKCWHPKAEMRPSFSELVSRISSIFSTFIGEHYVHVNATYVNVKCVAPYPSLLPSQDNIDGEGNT
- experiment-description: Inhibition of TPR-MET in mouse […] cells assessed as inhibition of cell proliferation at 10 uM after 72 hrs by SRB or MTT assay relative to control
- Type: cell-based
Label false (0) if inhibition falls below 80%; label true (1) in every other case.

The following compounds have reported results that may help.
# chemical-smiles, system-name, classification
rows = [
    ("Brc1ccc(-c2cnc3nnc(Cc4c[nH]c5ccccc45)n3n2)cc1", "TPR/MET fusion protein (Mus musculus) (UniProt P16056+F6ZDS4)", "false (0)"),
    ("c1cnc2ccc(Cc3nnc4ncc(-c5cnn(C6CCNCC6)c5)nn34)cc2c1", "TPR/MET fusion protein (Mus musculus) (UniProt P16056+F6ZDS4)", "false (0)"),
    ("Oc1cccc(-c2cnc3nnc(Cc4ccc5ncccc5c4)n3n2)c1", "TPR/MET fusion protein (Mus musculus) (UniProt P16056+F6ZDS4)", "false (0)"),
    ("Cn1cc(-c2ccc3nnc(C(F)(F)c4ccc5ncccc5c4)n3n2)cn1", "TPR/MET fusion protein (Mus musculus) (UniProt P16056+F6ZDS4)", "false (0)"),
    ("Oc1cccc(-c2cnc3nnc(Cc4c[nH]c5ccccc45)n3n2)c1", "TPR/MET fusion protein (Mus musculus) (UniProt P16056+F6ZDS4)", "false (0)"),
]

input: Given the entry `O=[N+]([O-])c1cccc(-c2cnc3nnc(Cc4ccc5ncccc5c4)n3n2)c1` , answer whether its inhibition meets or surpasses 80%.
output: true (1)

input: Continue with `c1ccc(COc2ccc(-c3cnc4nnc(Cc5ccc6ncccc6c5)n4n3)cc2)cc1`
output: true (1)

input: Continue with `Brc1ccc(-c2cnc3nnc(Cc4ccc5ncccc5c4)n3n2)cc1`
output: true (1)

Data provenance: ChEMBL document CHEMBL3797175
